Attribution: paper PMC11543927

tested target: T1, ScChc-NTD Clathrin, Arrestin and W box mutant (Cla+Arr+W) (Saccharomyces cerevisiae, UniProt P22137 1-369, F26A | K63E | I87D | Q89A | K98E | Q155A | Q195A | I197T | K251E)
T1 construct: Clathrin heavy chain N-terminal domain, Saccharomyces cerevisiae, residues 1-369, Clathrin, Arrestin and W box mutant; also called triple mutant
T1 sequence (looked up): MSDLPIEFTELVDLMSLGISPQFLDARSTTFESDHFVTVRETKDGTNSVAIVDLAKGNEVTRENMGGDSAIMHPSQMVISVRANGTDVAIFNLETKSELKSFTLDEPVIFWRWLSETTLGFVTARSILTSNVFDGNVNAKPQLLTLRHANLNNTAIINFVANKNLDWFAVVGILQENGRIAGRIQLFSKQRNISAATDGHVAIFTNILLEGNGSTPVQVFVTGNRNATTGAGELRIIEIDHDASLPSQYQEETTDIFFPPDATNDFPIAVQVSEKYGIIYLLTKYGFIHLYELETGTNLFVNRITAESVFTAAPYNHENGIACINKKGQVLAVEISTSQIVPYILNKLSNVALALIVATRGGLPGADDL
protocol summary: nanoDSF thermal shift; ScChc-NTD mutants 10 µM with Ent1 or Ent2 peptide, thermal ramp up to 80 °C; apparent KD from the Tm shift model
stated conditions: both partners purified

[
  {
    "binder": "GVSLIDL (also called Ent2 peptide; source: synthetic peptide, bought: NovoProLabs) [Ent2 CBM peptide (GVSLIDL)]",
    "Kd": "~1.04 mM"
  },
  {
    "binder": "GYTLIDL (also called Ent1 peptide; source: synthetic peptide, bought: NovoProLabs) [Ent1 CBM peptide (GYTLIDL)]",
    "Kd": "~3.45 mM"
  }
]
